test system: NCC-MFS5-C1; experiment: cell viability relative to DMSO control; higher = less growth inhibition; details: 10 µM; treatment time: 3 days
Under this convention, 1 denotes cell viability strictly below 70% and 0 denotes cell viability at or above 70%.

These recorded examples may help you get a feel for the data.
O=c1c(-c2ccc(O)cc2)coc2cc(O)cc(O)c12 = 0
CC(=O)Oc1ccccc1C(=O)O = 0
O=C(/C=C/c1cccc(S(=O)(=O)Nc2ccccc2)c1)NO = 1
Nc1nc(Cl)nc2c1ncn2[C@H]1C[C@H](O)[C@@H](CO)O1 = 0
CC(C)(C)c1cc(NC(=O)Nc2ccc(-c3cn4c(n3)sc3cc(OCCN5CCOCC5)ccc34)cc2)no1 = 1
N#CC1(c2ccc(NC(=O)c3cccnc3NCc3ccncc3)cc2)CCCC1 = 0

Okay, now this molecule:
Q. Could you please tell me whether cell viability recorded for `CN1CCN(CCOc2cc(OC3CCOCC3)c3c(Nc4c(Cl)ccc5c4OCO5)ncnc3c2)CC1` is less than 70%?
A. 1

---

test system: NCC-MFS5-C1; experiment: cell viability relative to DMSO control; higher = less growth inhibition; conditions: 10 µM; treatment time: 3 days
Counter-ions that a name gives are not always drawn.
MEASURED_ENDPOINT: cell viability (%)
Could you give me the number in %? Just the number is fine.

Answered examples (6):
C[C@@]12C[C@@]3(O)O[C@@H](O1)[C@]1(COC(=O)c4ccccc4)[C@H]3C[C@@]12O[C@@H]1O[C@H](CO)[C@@H](O)[C@H](O)[C@H]1O [Paeoniflorin] = 83.6
CC(C)(C#N)c1cc(Cn2cncn2)cc(C(C)(C)C#N)c1 [Anastrozole] = 83.5
CNC(=O)c1ccccc1Sc1ccc2c(/C=C/c3ccccn3)n[nH]c2c1 [Axitinib] = 79.1
CC[C@@]1(O)C(=O)OCc2c1cc1n(c2=O)Cc2cc3c(CN(C)C)c(O)ccc3nc2-1 [Topotecan HCl] = 33.3
CNC(=O)c1cc(Oc2ccc(NC(=O)Nc3ccc(Cl)c(C(F)(F)F)c3)cc2)ccn1 [Sorafenib Tosylate] = 45.3
COc1cc2nccc(Oc3ccc(NC(=O)NC4CC4)c(Cl)c3)c2cc1C(N)=O [Lenvatinib (E7080)] = 75.4

Continue with the next compound.
Q. Which cell viability reading was recorded for the compound C/C=C1\NC(=O)[C@H]2CSSCC/C=C/[C@H](CC(=O)N[C@H](C(C)C)C(=O)N2)OC(=O)[C@H](C(C)C)NC1=O [Romidepsin (FK228, Depsipeptide)] ?
A. -1.35

---

Form field: cell viability (one value per entry).
system: NCC-MFS5-C1; assay: cell viability relative to DMSO control; higher = less growth inhibition; conditions: 10 µM; treatment time: 3 days
Quick note: number first, unit second.

Record excerpt, results attached:
Cc1ccc(C(=O)Nc2ccc(CN3CCN(C)CC3)c(C(F)(F)F)c2)cc1C#Cc1cnc2cccnn12 = -2.74%
CCCCC1C(=O)N(c2ccccc2)N(c2ccccc2)C1=O [Phenylbutazone] = 72.5%
O=C(Nc1nc2cccc(-c3ccc(CN4CCS(=O)(=O)CC4)cc3)n2n1)C1CC1 [Filgotinib (GLPG0634)] = 93.1%

Q. Recorded cell viability for COc1cc2nccc(Oc3ccc(NC(=O)C4(C(=O)Nc5ccc(F)cc5)CC4)cc3)c2cc1OC [Cabozantinib malate (XL184)] , please?
A. 67.2%

Q. Then what about the compound S=C(NCc1ccc2c(c1)OCO2)N1CCN(c2ncnc3c2oc2ccccc23)CC1 [Amuvatinib (MP-470)] ?
A. 86.1%

Q. Can you check COc1cc(OC)cc(N(CCNC(C)C)c2ccc3ncc(-c4cnn(C)c4)nc3c2)c1 [Erdafitinib] next?
A. 33.1%

Q. And what about the compound `COc1cc2ncnc(Nc3ccc(F)c(Cl)c3)c2cc1NC(=O)/C=C/CN1CCCCC1` ?
A. 82.9%

Q. Cool, now CC(C)c1nc(CN(C)C(=O)N[C@@H](CCN2CCOCC2)C(=O)N[C@H](CC[C@H](Cc2ccccc2)NC(=O)OCc2cncs2)Cc2ccccc2)cs1 [Cobicistat (GS-9350)]
A. 61.5%
